- System: M. tuberculosis H37Rv
- assay protocol: Antimicrobial susceptibility in BACTEC MGIT 960 system
- Assay type: cell-based, Mycobacterium tuberculosis
- condition details: M. tuberculosis H37Rv, BACTEC, 50 and 100 µg/ml
measured property: Mtb: antimicrobial activity against M. tuberculosis (supplement table)

molecule | data value
CNC(=O)COc1ccccc1O [L2-15, 2-(2-hydroxyphenoxy)-N-methylacetamide] | -
S=C(Cc1ccccc1)N1CCCCC1 | +
Cc1ccc(S(=O)(=O)NN(C)C)cc1 [L2-01, N′,N′,4-trimethylbenzenesulfonohydrazide] | -

* * *

Entries and their TC50, cytotoxicity in HeLa cells
- Test system: HeLa cells
- assay protocol: Compound cytotoxicity, WST-1 Cell Proliferation Reagent
- Assay type: cell-based
- condition details: 48 hours exposure, WST-1
Give just the numeric value; µM need not be written.

Some compounds with recorded TC50, cytotoxicity in HeLa cells:
smiles input | unit info | TC50, cytotoxicity in HeLa cells
CS(=O)(=O)c1ncc(Cl)c(C(=O)NCc2ccccc2)n1 | µM | 20
S=C(Cc1ccccc1)N1CCCCC1 | µM | 406

Next compound, TC50, cytotoxicity in HeLa cells to be filled in.
**Query** Which TC50, cytotoxicity in HeLa cells value is on record for CCOc1ccc(CCNC(=O)Cn2sc3nc(C)cc(C)c3c2=O)cc1 ?
**Result** 36.4

Data credit: paper PMC3102704
